Where do the numbers come from? From patent US20240343803A1.

- measured.target: T1, full-length human TIGIT on CHO-K1 cells (CHO-K1 human TIGIT) (human, UniProt Q495A1 22-244)
- T1 construct: NCBI XP_024309156.1; entry includes the signal peptide; also called high expression strain 1D2; medium expression strain 2D10
- T1 sequence: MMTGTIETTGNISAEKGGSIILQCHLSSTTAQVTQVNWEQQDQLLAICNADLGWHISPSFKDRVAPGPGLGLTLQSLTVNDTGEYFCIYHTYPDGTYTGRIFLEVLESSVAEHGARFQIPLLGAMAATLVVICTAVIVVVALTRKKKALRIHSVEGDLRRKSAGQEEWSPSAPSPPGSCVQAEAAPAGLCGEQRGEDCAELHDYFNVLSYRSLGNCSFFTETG
- protocol.summary: FACS, competition: Bio-CD155-His to CHO-K1 human TIGIT
Overview of recorded IC50 for various binders

{"columns": ["binder", "IC50 / nM"],
 "data": [
  ["TIGIT-CHI-070 (antibody, V domains shown, human-mouse chimeric antibody) VH: QVQLQQPGTELVKPGASVKLSCRASGYTFTNYYMHWVKQRPGRGLEWIGRIDPDSGGSKYNEKFKSKATLTVDKLSSTAYMQLSSLTSEDSAVYYCAREGHYGFYSDYWGQGTTLTVSS VL: DIQMTQSPASLSASVGETVTITCRVSENIYSYLAWYQQKQGKSPQLLVYNAKTLAEGVPSRFSGSGSGTQFSLKINSLQPEDFGNYYCQHHYGNPLTFGAGTKLDLK", 0.384],
  ["TIGIT-CHI-005 (antibody, V domains shown, human-mouse chimeric antibody) VH: QVQLQQSGAELVRPGTSVKVSCKASGYAFTNYLIEWVKQRPGQGLEWIGVINPGSGGTNYKEKFKGKATLTADKSSSTAYMQLSSLTSEDSAVYFCARGEYFFFDYWGQGTTLTVSS VL: DIVMTQSHKFMSTSVGDRVSITCKASQHVSNGVAWYQHKPGQSPKLLIYSASYRYTGVPDRFTGTGSGTDFTFTISSVQAEDLAVYYCQQHYNTPHTFGGGTKLEIK", 0.158],
  ["TIGIT-CHI-006 (antibody, V domains shown, human-mouse chimeric antibody) VH: EVQLQESGPGLAKPSQTPSLTCSVTGYSMTSDYWNWIRKFPGNKLEYMGYISYSGRTYYNPSLKSRISITRDTSKNQFYLQLNSVTTEDTATYYCARGDYSNYGGAMYDWGQGTSVTVSS VL: DIVMTQSHKFMSTSVGDRVSITCRASQGVSTTIAWYQQKPGQSPKLLIYSASYRYTGVPDRFTGSGSGTDFTFTISGVQAEDLAVYYCQQYYSSPFTFGGGTKLEIK", 0.246]
]}
